B1: TPR t1 (parent)
chain: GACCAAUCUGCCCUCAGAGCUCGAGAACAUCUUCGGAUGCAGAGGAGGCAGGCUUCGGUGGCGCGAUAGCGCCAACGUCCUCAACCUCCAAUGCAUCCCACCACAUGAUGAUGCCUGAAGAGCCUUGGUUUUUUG

Variants of: B1
Test: polymerase ribozyme fitness, log enrichment relative to wild type (log ratio); higher = more active; in vitro selection for triplet polymerase activity
Measurement kind: polymerase ribozyme fitness (log ratio)

>  <Changes>
A29G C73U

>  <polymerase ribozyme fitness (log ratio)>
-1.55

$$$$
>  <Changes>
U14A G57A G61A A90G C124A

>  <polymerase ribozyme fitness (log ratio)>
1.08

$$$$
>  <Changes>
C72A C88G C124A

>  <polymerase ribozyme fitness (log ratio)>
1.33

$$$$

Task: Which polymerase ribozyme fitness (log ratio) is reported for this variant? A18C U92G A121G
Output: -0.659

Task: Try this variant too: G77U U131A
Output: -0.157

Task: Try this variant too: A6C G63A U87G C88A
Output: -1.25

Task: Try this variant too: C70U U78C U129G
Output: -1.5

Task: Try this variant too: U7A C73G
Output: -1.63

Each recorded value in this set is attributed to the RNAGym collection of RNA variant scans (doi:10.1073/pnas.2313332121).
